methodDescription: NCI Yeast Anticancer Drug Screen. Data for the cln2 rad14 strain (AID 165);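 also: 0% = growth equal to vehicle treated cultures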
testParameters: S. cerevisiae cln2 rad14 strain, at 50.0 µM
About 79,000 compounds went through this panel and 15% of them were active in at least one assay; those are over-represented in the sample as a whole. Activity calls are given as the source filed them. Rule as the data show it: active = growth inhibition above about 70%; inactive = the rest.
Hello, when you answer, please use one of the following outcomes: 1 for active, -1 for inactive

Per the records of this test, what outcome belongs to CCN(CC)c1ccc(N=C2C=C(C(=O)Nc3cccc(Cl)c3)C(=O)c3ccccc32)c(C)c1 ?
-1

Per the records of this test, what outcome belongs to CCC(=O)NC1=C(Cl)C(=O)c2ccccc2C1=O ?
1

Per the records of this test, what outcome belongs to CC(Cc1ccccc1)NNC(C)Cc1ccccc1 (stereo not given) ?
1

Per the records of this test, what outcome belongs to O=C1NN=C(c2ccc(Cl)cc2)CC1C1C(=O)N(c2ccccc2)N=C1c1ccccc1 (stereo not given) ?
1

Per the records of this test, what outcome belongs to C[n+]1c(-c2cccc(OCCCCCCCCCCOc3cccc(-c4c5cc(N)ccc5c5ccc(N)cc5[n+]4C)c3)c2)c2cc(N)ccc2c2ccc(N)cc21 ?
1

###

methodDescription: NCI Yeast Anticancer Drug Screen. Data for the mec2-1 strain (AID 157)
testParameters: S. cerevisiae mec2-1 strain, at 50.0 µM
Compounds without any hit were thinned out: in the full panel of roughly 79,000, 15% have a hit. Calls of active or inactive are those of the source. No stated cut-off is given here; in the data, active means growth inhibition above about 70%; inactive means the rest.
Hello, when you answer, please use one of the following outcomes: active, inactive

Study these solved cases before continuing.
compound | classification
O=C(Nn1cc(F)c(=O)[nH]c1=O)C12CC3CC(CC(C3)C1)C2 | inactive
Cc1ccsc1/C=N/Nc1cc(C)c2cccc(C)c2n1 | inactive
O=[N+]([O-])c1ccc(Cl)c(C(Nc2nncs2)Nc2nncs2)c1 | inactive
CC1=C2CCC3C(CCC4(C)C(C(C)CCCC(C)C)CCC34)C2(C)CCC1=O (stereo unspecified) | inactive
Oc1cc(C(c2ccccc2)c2ccccc2)c2ccccc2c1O | active
CNC(=O)c1cccc2c(Nc3ccc(NS(C)(=O)=O)cc3OC)c3cccc(C)c3nc12 | inactive

Per the records of this test, what outcome belongs to BrC(Br)([P+](c1ccccc1)(c1ccccc1)c1ccccc1)[P+](c1ccccc1)(c1ccccc1)c1ccccc1 ?
inactive

Per the records of this test, what outcome belongs to NC1=C(O)C(=O)C(c2c3ccccc3cc3ccccc23)O1 (stereo unspecified) ?
active

Per the records of this test, what outcome belongs to Cc1c(CNc2ccc(Cl)c(Cl)c2Cl)cnc2nc(N)nc(N)c12 ?
inactive

Per the records of this test, what outcome belongs to Nc1nnc2nc(C(C(=O)c3ccccc3Cl)c3nc4nnc(N)n4[nH]c3=O)c(=O)[nH]n12 ?
active

Per the records of this test, what outcome belongs to Cc1ccc(C)c(N2C/C(=N\NC(=O)CC#N)C(c3nc4ccccc4s3)C(=O)C2=O)c1 (stereo unspecified) ?
inactive

Per the records of this test, what outcome belongs to Nc1nc(-c2ccccc2)c(N=Nc2c(Cl)cccc2Cl)s1 ?
active

###

methodDescription: NCI Yeast Anticancer Drug Screen. Data for the rad50 strain (AID 155);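 also: 0% = growth of vehicle-only cultures of the same strain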
testParameters: S. cerevisiae rad50 strain growth inhibition; at 50.0 µM (retest, dose inferred, filed as 5.0)
The panel holds about 79,000 compounds, 15% with a hit somewhere; the sample as a whole holds those more often. Activity calls are given as the source filed them. No stated cut-off is given here; in the data, active means growth inhibition above about 70%; inactive means the rest.
Hello, when you answer, please use one of the following outcomes: YES = active, NO = inactive

Study these solved cases before continuing.
compound | classification
C1=CC2C(c3cccc4ccccc34)O[C@H]2O1 (stereo partly drawn) | YES
O=C(c1ccccc1)c1c(CO[N+](=O)[O-])n([O-])c2ccccc2[n+]1=O | YES
Oc1ccc2cc(Br)ccc2c1 | YES
COc1cc2c(c(-c3cn(C)c4ccccc34)c1OC)OCO2 | NO
CCOC(=O)C(=N\Nc1cccc(C)c1C)/C(C)=N\NC(N)=S | NO
Cn1nc2c(c(Cl)c1=O)Nc1ccccc1O2 | NO
CCOC(=O)c1[nH]c2c([N+](=O)[O-])cccc2c1[N+](=O)[O-] | NO
CCS(=O)(=O)c1ccc(NC(=O)OC2CCCCCCC2)cc1 | YES
CCCOC(=O)C(Br)C(Br)C(=O)OCCC (stereo not drawn) | YES
Cc1cc(N(CCOS(C)(=O)=O)CCOS(C)(=O)=O)ccc1C=Nc1cccc(Cl)c1 | YES

Per the records of this test, what outcome belongs to Cn1cnc2[nH]c(Cl)nc(=S)c21 ?
NO
